Source of measurements: patent US8569344B2

Overview of reported IC50 across a group of compounds:
System: human α1G T-type channels (Homo sapiens, UniProt O43497)
Construct: expressed in transfected cells; host or cells: HEK 293
Sequence (O43497 whole entry): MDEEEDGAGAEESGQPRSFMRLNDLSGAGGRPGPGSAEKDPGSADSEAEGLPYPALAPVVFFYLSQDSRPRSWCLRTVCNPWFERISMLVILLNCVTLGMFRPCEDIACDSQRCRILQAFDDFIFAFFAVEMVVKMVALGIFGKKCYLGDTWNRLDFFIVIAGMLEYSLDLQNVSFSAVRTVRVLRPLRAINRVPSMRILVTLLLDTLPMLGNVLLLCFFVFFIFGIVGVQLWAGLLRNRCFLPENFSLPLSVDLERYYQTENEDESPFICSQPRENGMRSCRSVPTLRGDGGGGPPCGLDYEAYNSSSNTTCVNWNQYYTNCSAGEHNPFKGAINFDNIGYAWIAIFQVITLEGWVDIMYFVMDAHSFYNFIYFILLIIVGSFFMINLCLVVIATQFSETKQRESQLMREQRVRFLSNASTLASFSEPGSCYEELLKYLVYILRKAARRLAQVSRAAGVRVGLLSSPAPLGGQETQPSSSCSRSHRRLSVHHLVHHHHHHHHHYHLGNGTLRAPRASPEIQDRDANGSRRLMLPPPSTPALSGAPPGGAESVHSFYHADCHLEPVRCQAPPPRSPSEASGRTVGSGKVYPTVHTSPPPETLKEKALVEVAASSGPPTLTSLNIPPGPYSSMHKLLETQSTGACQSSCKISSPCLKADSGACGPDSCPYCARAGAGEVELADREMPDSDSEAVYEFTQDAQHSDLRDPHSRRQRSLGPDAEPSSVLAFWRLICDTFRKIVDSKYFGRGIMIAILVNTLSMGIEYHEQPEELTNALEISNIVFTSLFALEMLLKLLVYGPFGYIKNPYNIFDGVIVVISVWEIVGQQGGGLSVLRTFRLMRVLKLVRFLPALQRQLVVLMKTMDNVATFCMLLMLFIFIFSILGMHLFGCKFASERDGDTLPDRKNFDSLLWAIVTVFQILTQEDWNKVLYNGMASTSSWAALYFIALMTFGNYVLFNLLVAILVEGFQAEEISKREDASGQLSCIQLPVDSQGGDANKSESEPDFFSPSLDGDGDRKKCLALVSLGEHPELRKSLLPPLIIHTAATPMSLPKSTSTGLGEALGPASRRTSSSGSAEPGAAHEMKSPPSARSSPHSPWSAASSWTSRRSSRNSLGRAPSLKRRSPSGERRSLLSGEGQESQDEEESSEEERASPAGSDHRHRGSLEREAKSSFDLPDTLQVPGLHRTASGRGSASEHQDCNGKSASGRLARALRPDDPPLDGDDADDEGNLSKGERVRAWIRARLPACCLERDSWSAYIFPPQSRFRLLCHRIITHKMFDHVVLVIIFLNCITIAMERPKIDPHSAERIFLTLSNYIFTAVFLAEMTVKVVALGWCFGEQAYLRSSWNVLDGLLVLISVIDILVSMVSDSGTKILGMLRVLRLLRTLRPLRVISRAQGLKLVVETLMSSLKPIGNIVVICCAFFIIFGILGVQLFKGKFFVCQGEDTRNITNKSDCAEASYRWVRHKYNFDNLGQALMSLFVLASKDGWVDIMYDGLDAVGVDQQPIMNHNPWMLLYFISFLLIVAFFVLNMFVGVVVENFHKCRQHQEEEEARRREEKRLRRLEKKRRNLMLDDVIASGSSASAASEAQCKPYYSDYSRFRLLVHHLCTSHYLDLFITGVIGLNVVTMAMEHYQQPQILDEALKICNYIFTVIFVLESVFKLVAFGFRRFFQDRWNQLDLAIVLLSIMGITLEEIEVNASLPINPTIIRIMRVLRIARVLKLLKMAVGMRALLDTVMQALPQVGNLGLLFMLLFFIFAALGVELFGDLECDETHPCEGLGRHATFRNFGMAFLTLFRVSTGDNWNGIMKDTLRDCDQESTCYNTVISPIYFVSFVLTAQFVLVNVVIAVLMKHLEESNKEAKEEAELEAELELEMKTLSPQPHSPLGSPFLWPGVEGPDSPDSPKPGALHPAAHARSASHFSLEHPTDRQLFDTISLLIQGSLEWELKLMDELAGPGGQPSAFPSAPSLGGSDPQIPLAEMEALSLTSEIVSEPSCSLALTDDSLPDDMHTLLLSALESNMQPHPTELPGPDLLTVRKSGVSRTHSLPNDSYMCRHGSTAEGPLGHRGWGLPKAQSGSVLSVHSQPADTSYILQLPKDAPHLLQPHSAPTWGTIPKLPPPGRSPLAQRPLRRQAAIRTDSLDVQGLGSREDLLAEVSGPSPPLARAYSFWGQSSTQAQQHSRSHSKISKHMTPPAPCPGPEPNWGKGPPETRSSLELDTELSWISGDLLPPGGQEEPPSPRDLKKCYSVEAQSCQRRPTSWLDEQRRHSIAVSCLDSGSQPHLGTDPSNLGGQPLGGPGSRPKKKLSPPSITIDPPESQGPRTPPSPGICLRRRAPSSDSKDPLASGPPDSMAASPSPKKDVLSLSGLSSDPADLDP
Test summary: T-type calcium channel block, whole cell patch clamp in HEK cells (α1G)
Type: cell-based
Run parameters: HEK cells, patch clamp, mainly non-inactivated protocol; values above 10 μM shown as 10 μM, below 0.30 μM shown as 0.30 μM; read-out: T-type Calcium Channel Block α1G IC50

Example compounds with recorded IC50:
[[record]]
chemical_string = "O=C(NCC1CCN(CC(=O)N2CCC[C@H]2C(F)(F)F)CC1)c1cccc(OC(F)(F)F)c1"
system = "human α1G T-type channels (Homo sapiens, UniProt O43497)"
measured_metric = "IC50"
test_value = "< 300 nM"

[[record]]
chemical_string = "O=C(NCC1CCN(C[C@@H]2CCCN2C(=O)C2CCCC2)CC1)c1cc(F)cc(C(F)(F)F)c1"
system = "human α1G T-type channels (Homo sapiens, UniProt O43497)"
measured_metric = "IC50"
test_value = "< 300 nM"

[[record]]
chemical_string = "Cc1cc(C)cc(C(=O)NCC2CCN(CC(=O)NC(C)C)CC2)c1"
system = "human α1G T-type channels (Homo sapiens, UniProt O43497)"
measured_metric = "IC50"
test_value = "> 10000 nM"

[[record]]
chemical_string = "O=C(NCC1CCN(C(=O)CNC2CCCC2)CC1)c1cc(C(F)(F)F)cc(C(F)(F)F)c1"
system = "human α1G T-type channels (Homo sapiens, UniProt O43497)"
measured_metric = "IC50"
test_value = "< 300 nM"


Now examine the next entry.
Ask: Item under review: "O=C(NCC1CCN(CC(=O)N2CCC(F)CC2)CC1)c1cc(C(F)(F)F)cc(C(F)(F)F)c1" . Reported IC50?
Result: < 300 nM

---

System: human α1H T-type channels (Homo sapiens, UniProt O95180)
Construct: expressed in transfected cells; host or cells: HEK 293
Sequence (O95180 whole entry): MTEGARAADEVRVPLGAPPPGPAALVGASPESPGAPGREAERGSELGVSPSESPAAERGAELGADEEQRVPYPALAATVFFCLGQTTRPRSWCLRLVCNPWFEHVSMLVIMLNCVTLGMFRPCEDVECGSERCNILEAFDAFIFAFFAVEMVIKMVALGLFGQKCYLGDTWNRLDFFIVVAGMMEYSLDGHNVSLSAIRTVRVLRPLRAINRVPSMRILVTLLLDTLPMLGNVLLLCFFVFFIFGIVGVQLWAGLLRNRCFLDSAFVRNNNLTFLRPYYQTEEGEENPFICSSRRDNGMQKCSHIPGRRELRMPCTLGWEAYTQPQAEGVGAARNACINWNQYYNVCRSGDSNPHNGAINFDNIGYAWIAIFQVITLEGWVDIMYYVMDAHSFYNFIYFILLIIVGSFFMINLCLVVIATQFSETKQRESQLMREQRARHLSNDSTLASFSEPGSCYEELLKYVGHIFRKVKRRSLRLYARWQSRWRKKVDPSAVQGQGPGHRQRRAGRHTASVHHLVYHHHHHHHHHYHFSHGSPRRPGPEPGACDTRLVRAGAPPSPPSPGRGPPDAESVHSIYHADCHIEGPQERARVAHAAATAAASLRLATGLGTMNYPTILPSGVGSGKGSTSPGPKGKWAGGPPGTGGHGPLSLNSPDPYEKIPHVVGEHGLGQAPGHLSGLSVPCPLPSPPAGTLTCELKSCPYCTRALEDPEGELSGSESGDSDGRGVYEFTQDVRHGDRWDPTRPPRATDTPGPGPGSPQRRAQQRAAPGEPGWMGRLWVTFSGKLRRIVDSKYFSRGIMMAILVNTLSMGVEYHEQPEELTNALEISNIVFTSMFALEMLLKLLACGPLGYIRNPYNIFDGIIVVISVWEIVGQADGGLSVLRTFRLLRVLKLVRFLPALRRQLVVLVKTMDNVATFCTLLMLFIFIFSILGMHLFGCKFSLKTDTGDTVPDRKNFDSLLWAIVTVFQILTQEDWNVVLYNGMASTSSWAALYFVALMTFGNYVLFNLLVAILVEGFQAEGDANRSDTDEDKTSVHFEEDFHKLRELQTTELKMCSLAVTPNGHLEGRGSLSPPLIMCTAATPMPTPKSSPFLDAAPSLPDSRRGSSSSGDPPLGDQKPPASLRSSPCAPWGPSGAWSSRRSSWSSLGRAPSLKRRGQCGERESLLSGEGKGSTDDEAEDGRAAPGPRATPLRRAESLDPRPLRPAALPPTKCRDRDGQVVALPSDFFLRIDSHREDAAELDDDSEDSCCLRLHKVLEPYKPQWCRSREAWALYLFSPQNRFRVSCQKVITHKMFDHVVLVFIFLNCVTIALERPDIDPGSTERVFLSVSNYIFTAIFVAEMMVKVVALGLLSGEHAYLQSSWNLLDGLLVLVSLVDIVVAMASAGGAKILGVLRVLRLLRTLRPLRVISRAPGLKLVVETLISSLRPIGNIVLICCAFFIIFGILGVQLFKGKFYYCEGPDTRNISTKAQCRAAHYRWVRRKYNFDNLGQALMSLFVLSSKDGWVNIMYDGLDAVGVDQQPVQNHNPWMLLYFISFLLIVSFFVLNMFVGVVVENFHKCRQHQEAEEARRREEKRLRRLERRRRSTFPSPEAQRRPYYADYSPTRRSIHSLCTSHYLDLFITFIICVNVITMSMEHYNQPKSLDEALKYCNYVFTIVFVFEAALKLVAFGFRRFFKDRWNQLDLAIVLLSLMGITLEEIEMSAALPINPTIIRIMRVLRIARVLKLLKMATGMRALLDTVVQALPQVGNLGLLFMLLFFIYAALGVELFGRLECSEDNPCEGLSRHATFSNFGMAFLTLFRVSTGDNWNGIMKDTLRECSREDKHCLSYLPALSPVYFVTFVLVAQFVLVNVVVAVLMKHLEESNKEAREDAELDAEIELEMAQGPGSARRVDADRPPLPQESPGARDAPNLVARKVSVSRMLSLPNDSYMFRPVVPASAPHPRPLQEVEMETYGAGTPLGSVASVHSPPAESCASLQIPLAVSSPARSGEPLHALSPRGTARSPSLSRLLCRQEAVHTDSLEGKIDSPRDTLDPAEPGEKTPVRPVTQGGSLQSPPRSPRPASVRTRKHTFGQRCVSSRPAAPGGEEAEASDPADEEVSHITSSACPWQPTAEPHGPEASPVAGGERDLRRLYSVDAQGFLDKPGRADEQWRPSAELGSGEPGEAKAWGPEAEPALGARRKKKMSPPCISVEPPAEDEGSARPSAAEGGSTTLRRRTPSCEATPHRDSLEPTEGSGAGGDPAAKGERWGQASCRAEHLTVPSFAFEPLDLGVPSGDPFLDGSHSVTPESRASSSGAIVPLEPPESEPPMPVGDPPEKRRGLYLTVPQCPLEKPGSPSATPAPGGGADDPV
Test summary: T-type calcium channel block, whole cell patch clamp in HEK cells (α1H)
Format: cell-based
Run parameters: HEK cells, patch clamp, mainly non-inactivated protocol; values above 10 μM shown as 10 μM; read-out: T-type Calcium Channel Block α1H IC50
pIC50: −log10 of the molar value.
Measured metric: pIC50

Example molecules with recorded pIC50:
[[record]]
molecule = "O=C(NCC1CCN(CC(=O)N2CCC[C@H]2C(F)(F)F)CC1)c1cccc(OC(F)(F)F)c1 [Compound 471]"
test_value = 7.22

[[record]]
molecule = "CCC1CCCN1C(=O)CN1CCC(CNC(=O)c2cc(C(F)(F)F)cc(C(F)(F)F)c2)CC1 (stereo not shown) [Compound 105]"
test_value = 6.55

[[record]]
molecule = "CN(C(=O)CN1CCC(CNC(=O)c2cccc(Cl)c2)CC1)C(C)(C)C(F)(F)F [Compound 580]"
test_value = 6.66

[[record]]
molecule = "CCCCCNCC(=O)N1CCC(CNC(=O)c2cc(F)cc(C(F)(F)F)c2)CC1 [Compound 267]"
test_value = 6.06

[[record]]
molecule = "O=C(NCC1CCN(CC(=O)N2CCC(F)CC2)CC1)c1cc(F)cc(C(F)(F)F)c1 [Compound 356]"
test_value = 6.08


P = CN(C(=O)CN1CCC(CNC(=O)c2cccc(Cl)c2)CC1)C(C)(C)C [Compound 543]
Q = CN(CCN1CCC(CNC(=O)c2cc(F)cc(C(F)(F)F)c2)CC1)C(=O)C1CCCC1 [Compound 516]
Ask: Could you please tell me which of these two has the higher pIC50: P or Q ? Indicate which entry you chose by stating its label.
Result: Q
